# Target system: von Hippel-Lindau disease tumor suppressor/Polymerase basic protein 1 (Influenza A virus (strain A/Puerto Rico/8/1934 H1N1)) (UniProt P03431+P40337)
# Sequence (P03431 whole entry, looked up): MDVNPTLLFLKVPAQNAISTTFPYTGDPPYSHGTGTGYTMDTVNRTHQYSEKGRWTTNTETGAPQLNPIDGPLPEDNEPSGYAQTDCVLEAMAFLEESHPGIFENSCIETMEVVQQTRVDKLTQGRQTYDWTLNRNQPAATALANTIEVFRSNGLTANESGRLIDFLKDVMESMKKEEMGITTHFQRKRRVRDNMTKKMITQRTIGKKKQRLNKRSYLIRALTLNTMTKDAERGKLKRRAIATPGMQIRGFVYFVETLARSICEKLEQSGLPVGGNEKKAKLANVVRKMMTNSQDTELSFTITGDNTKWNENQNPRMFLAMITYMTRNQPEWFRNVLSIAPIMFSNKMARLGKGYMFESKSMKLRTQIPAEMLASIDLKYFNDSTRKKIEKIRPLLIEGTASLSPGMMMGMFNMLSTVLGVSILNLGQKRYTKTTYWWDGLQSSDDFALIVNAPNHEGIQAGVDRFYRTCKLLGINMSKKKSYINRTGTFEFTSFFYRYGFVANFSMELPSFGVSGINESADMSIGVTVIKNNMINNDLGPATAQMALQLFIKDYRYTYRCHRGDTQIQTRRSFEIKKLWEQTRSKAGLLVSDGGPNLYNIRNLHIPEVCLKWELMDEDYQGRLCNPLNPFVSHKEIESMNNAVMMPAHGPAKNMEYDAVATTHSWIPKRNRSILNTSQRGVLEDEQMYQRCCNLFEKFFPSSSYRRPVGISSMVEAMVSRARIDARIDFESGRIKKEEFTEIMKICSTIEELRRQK
# Sequence (P40337 whole entry, looked up): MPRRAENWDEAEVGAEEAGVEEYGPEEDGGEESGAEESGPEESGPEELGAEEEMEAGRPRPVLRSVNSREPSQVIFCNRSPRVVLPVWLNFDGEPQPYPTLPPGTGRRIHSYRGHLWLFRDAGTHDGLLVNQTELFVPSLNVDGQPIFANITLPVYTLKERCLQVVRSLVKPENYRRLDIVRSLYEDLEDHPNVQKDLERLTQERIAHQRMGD
# Assay: PROTAC activity at Influenza A virus A/WSN/33(H1N1) flag tagged Polymerase basic protein 1/VHL (unknown origin) expressed in HEK293T cells assessed as degradation of PB1 expression at 1 ug/ml incubated for 24 hrs by Western blotting analysis
# Type: cell-based
# Run parameters: dose 1.0 µg/ml
The source made the active and inactive calls. The calls are words filed in the database; no cut-off is given here.
Outcome measure: Activity

Query string: Which Activity is listed for CC(C)(C)OC(=O)NCCCC[C@H](NC(=O)OC(C)(C)C)C(=O)NCCCCCCCCCC(=O)Nc1ccc(NC(=S)NC(=O)c2ccc(C(C)(C)C)cc2)cc1 ?
Result string: inactive

Query string: Can you handle CC(C)(C)OC(=O)N[C@@H](Cc1c[nH]c2ccccc12)C(=O)NCCCCCCCCCC(=O)Nc1ccc(NC(=S)NC(=O)c2ccc(C(C)(C)C)cc2)cc1 next?
Result string: inactive

Query string: Can you handle CC(C)(C)OC(=O)N[C@@H](Cc1c[nH]c2ccccc12)C(=O)Nc1ccc(NC(=S)NC(=O)c2ccc(C(C)(C)C)cc2)cc1 next?
Result string: inactive

====

# Assay: Intrinsic clearance in human liver microsomes preincubated for 5 mins followed by NADPH addition and measured for 45 mins by LC-MS analysis
# Type: ADME, Microsome
# Run parameters: time 50 min, read-out: CLH
Outcome measure: CLint scaled (mL/min/kg)
Write down the numeric answer in mL/min/kg and omit the unit.

Query string: Which CLint scaled is listed for CC(C)(C)OC(=O)NCCCC[C@H](NC(=O)OC(C)(C)C)C(=O)NCCCCCCCC(=O)Nc1ccc(NC(=S)NC(=O)c2ccc(C(C)(C)C)cc2)cc1 ?
Result string: 137

Query string: Can you handle CC(C)(C)c1ccc(C(=O)NC(=S)Nc2ccc(N)cc2)cc1 next?
Result string: 11.6

====

Kindly state CC50 at 48 h for each of the entries shown.
# Assay: Cytotoxicity against human HEK293T cells assessed as reduction in cell viability incubated for 48 hrs by CCK-8 assay
# Assay type: toxicity, cell-based, HEK-293T

Query string: Which CC50 at 48 h is listed for CC(C)(C)OC(=O)NCCCC[C@H](NC(=O)OC(C)(C)C)C(=O)NCCCCCCCCCCC(=O)Nc1ccc(NC(=S)NC(=O)c2ccc(C(C)(C)C)cc2)cc1 ?
Result string: 74.5 µM

Query string: Can you handle CC(C)(C)OC(=O)/N=C(\NCCC[C@H](NC(=O)OC(C)(C)C)C(=O)NCCCCCCCC(=O)Nc1ccc(NC(=S)NC(=O)c2ccc(C(C)(C)C)cc2)cc1)NC(=O)OC(C)(C)C next?
Result string: > 100 µM

Query string: Can you handle CC(C)(C)OC(=O)NCCCC[C@H](NC(=O)OC(C)(C)C)C(=O)NCCCCCCC(=O)Nc1ccc(NC(=S)NC(=O)c2ccc(C(C)(C)C)cc2)cc1 next?
Result string: > 100 µM

====

# Assay: Stability in human plasma assessed as compound remaining measured after 30 mins by LC-MS/MS analysis
# Type: ADME, cell-free
# Run parameters: read-out: Stability
Kindly state remaining at 0.5 h for each of the entries shown.
Write down the numeric answer in % and omit the unit.

Query string: Which remaining at 0.5 h is listed for CC(C)(C)OC(=O)NCCCC[C@H](NC(=O)OC(C)(C)C)C(=O)NCCCCCCCC(=O)Nc1ccc(NC(=S)NC(=O)c2ccc(C(C)(C)C)cc2)cc1 ?
Result string: 108

Query string: Can you handle CC(C)(C)c1ccc(C(=O)NC(=S)Nc2ccc(N)cc2)cc1 next?
Result string: 104

====

# Assay: Hepatic clearance in human liver microsomes preincubated for 5 mins followed by NADPH addition and measured for 45 mins by LC-MS analysis
# Format: ADME, Microsome
# Run parameters: time 50 min
Kindly state CLhep predicted for each of the entries shown.
Write down the numeric answer in mL/min/kg and omit the unit.

Query string: Which CLhep predicted is listed for CC(C)(C)c1ccc(C(=O)NC(=S)Nc2ccc(N)cc2)cc1 ?
Result string: 7.43

Query string: Can you handle CC(C)(C)OC(=O)NCCCC[C@H](NC(=O)OC(C)(C)C)C(=O)NCCCCCCCC(=O)Nc1ccc(NC(=S)NC(=O)c2ccc(C(C)(C)C)cc2)cc1 next?
Result string: 18

====

# Target system: von Hippel-Lindau disease tumor suppressor/Polymerase basic protein 2 (Influenza A virus (strain A/Puerto Rico/8/1934 H1N1)) (UniProt P40337+P03428)
# Sequence (P03428 whole entry, looked up, one chain of several): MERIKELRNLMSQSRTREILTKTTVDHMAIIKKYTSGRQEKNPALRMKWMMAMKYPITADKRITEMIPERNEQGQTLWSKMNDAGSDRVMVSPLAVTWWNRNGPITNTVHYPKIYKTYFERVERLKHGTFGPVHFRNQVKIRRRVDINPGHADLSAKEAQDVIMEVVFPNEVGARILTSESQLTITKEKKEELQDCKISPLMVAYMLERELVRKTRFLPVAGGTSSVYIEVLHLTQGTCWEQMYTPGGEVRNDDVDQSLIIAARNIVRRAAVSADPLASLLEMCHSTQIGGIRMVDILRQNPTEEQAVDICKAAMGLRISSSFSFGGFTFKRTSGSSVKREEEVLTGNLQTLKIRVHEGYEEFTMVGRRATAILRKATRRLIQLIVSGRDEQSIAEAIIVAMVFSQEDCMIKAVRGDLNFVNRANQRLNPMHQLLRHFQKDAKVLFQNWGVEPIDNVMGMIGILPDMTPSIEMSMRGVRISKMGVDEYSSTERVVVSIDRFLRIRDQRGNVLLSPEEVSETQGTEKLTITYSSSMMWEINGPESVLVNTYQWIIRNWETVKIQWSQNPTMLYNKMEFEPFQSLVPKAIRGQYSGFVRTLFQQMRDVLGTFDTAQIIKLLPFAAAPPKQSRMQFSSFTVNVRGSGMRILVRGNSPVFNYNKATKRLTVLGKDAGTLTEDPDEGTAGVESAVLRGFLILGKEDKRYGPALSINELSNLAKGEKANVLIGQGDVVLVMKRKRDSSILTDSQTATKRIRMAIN
# Assay: PROTAC activity at Influenza A virus A/WSN/33(H1N1) flag tagged Polymerase basic protein 2/VHL (unknown origin) expressed in HEK293T cells assessed as degradation of PB2 expression at 10 ug/ml incubated for 24 hrs by Western blotting analysis
# Format: cell-based
# Run parameters: dose 10.0 µg/ml
Calls of active or inactive are those of the source. The calls are words filed in the database; no cut-off is given here.
Outcome measure: Activity

Query string: Which Activity is listed for CC(C)(C)OC(=O)N[C@@H](Cc1c[nH]c2ccccc12)C(=O)NCCCCCC(=O)Nc1ccc(NC(=S)NC(=O)c2ccc(C(C)(C)C)cc2)cc1 ?
Result string: inactive

Query string: Can you handle CC(C)(C)OC(=O)NCCCC[C@H](NC(=O)OC(C)(C)C)C(=O)NCCCCCCCC(=O)Nc1ccc(NC(=S)NC(=O)c2ccc(C(C)(C)C)cc2)cc1 next?
Result string: inactive

Query string: Can you handle CC(C)(C)OC(=O)NCCCC[C@H](NC(=O)OC(C)(C)C)C(=O)NCCCCCCC(=O)Nc1ccc(NC(=S)NC(=O)c2ccc(C(C)(C)C)cc2)cc1 next?
Result string: inactive

====

# Assay: Stability in human plasma assessed as compound remaining measured after 15 mins by LC-MS/MS analysis
# Format: ADME, cell-free
# Run parameters: read-out: Stability
Outcome measure: remaining at 0.25 h (%)
Write down the numeric answer in % and omit the unit.

Query string: Which remaining at 0.25 h is listed for CC(C)(C)OC(=O)NCCCC[C@H](NC(=O)OC(C)(C)C)C(=O)NCCCCCCCC(=O)Nc1ccc(NC(=S)NC(=O)c2ccc(C(C)(C)C)cc2)cc1 ?
Result string: 109

Query string: Can you handle CC(C)(C)c1ccc(C(=O)NC(=S)Nc2ccc(N)cc2)cc1 next?
Result string: 102

====

Kindly state CLint scaled for each of the entries shown.
# Assay: Intrinsic clearance in mouse liver microsomes preincubated for 5 mins followed by NADPH addition and measured for 45 mins by LC-MS analysis
# Format: ADME, Microsome
# Run parameters: time 50 min, read-out: CLH
Don't forget the unit after the value.

Query string: Which CLint scaled is listed for CC(C)(C)c1ccc(C(=O)NC(=S)Nc2ccc(N)cc2)cc1 ?
Result string: 249 mL/min/kg

Query string: Can you handle CC(C)(C)OC(=O)NCCCC[C@H](NC(=O)OC(C)(C)C)C(=O)NCCCCCCCC(=O)Nc1ccc(NC(=S)NC(=O)c2ccc(C(C)(C)C)cc2)cc1 next?
Result string: 170 mL/min/kg

====

# Target system: von Hippel-Lindau disease tumor suppressor/Polymerase basic protein 2 (Influenza A virus (strain A/Puerto Rico/8/1934 H1N1)) (UniProt P40337+P03428)
# Assay: PROTAC activity at Influenza A virus A/WSN/33(H1N1) flag tagged Polymerase basic protein 2/VHL (unknown origin) expressed in HEK293T cells assessed as degradation of PB2 expression at 1 ug/ml incubated for 24 hrs by Western blotting analysis
# Format: cell-based
# Run parameters: dose 1.0 µg/ml
Calls of active or inactive are those of the source. The rule behind the calls is not given here.
Outcome measure: Activity

Query string: Which Activity is listed for CC(C)(C)OC(=O)N[C@@H](Cc1c[nH]c2ccccc12)C(=O)NCCCCCCCCCCCC(=O)Nc1ccc(NC(=S)NC(=O)c2ccc(C(C)(C)C)cc2)cc1 ?
Result string: inactive

Query string: Can you handle CC(C)(C)OC(=O)N[C@@H](Cc1c[nH]c2ccccc12)C(=O)NCCCCCC(=O)Nc1ccc(NC(=S)NC(=O)c2ccc(C(C)(C)C)cc2)cc1 next?
Result string: inactive

Query string: Can you handle CC(C)(C)OC(=O)N[C@@H](Cc1c[nH]c2ccccc12)C(=O)Nc1ccc(NC(=S)NC(=O)c2ccc(C(C)(C)C)cc2)cc1 next?
Result string: inactive

====

Kindly state CLhep predicted for each of the entries shown.
# Assay: Hepatic clearance in dog liver microsomes preincubated for 5 mins followed by NADPH addition and measured for 45 mins by LC-MS analysis
# Format: ADME, Canis lupus familiaris, Microsome
# Run parameters: time 50 min
Write down the numeric answer in mL/min/kg and omit the unit.

Query string: Which CLhep predicted is listed for CC(C)(C)c1ccc(C(=O)NC(=S)Nc2ccc(N)cc2)cc1 ?
Result string: 22

Query string: Can you handle CC(C)(C)OC(=O)NCCCC[C@H](NC(=O)OC(C)(C)C)C(=O)NCCCCCCCC(=O)Nc1ccc(NC(=S)NC(=O)c2ccc(C(C)(C)C)cc2)cc1 next?
Result string: 26.3

Every entry's value here was drawn from ChEMBL document CHEMBL5512674.
